System: Plasmodium falciparum
Procedure Details: Confirmatory screen in NF54 nanoGlo assay, in single point, at 2uM, 72h
Assay type: functional, Erythrocyte
Study Conditions: timepoint 72 hour
About 420 (8.8%) of roughly 4,800 compounds showed an effect of 50% or more. The full list was thinned out, with strong results kept by preference.
Assay Readout: % Inhibition (%)
Answers are plain numbers, in %.

Past entries and their recorded results:
Test Smiles | Measurement Units | % Inhibition
CNc1nc(C)cc(C(=O)Nc2ccc(Cl)cc2NC(C)=O)n1 | % | 2
O=C(NOCc1ccc(F)cc1)NC1CCCCC1 | % | -5
O=C(CN1C[C@@H](c2ccccc2)Oc2ccccc2C1=O)Nc1ccccc1 | % | -16

For each entry beneath this line, provide reported % Inhibition.
1. COc1ccccc1N1CCN(C(=O)c2nnn(-c3ccccc3Cl)c2-c2cccnc2)CC1
2. CC(=O)c1cccc(NC(=O)Cn2c(=O)n(CCc3ccccc3)c(=O)c3ccccc32)c1
3. COc1ccc(-c2cn(-c3ccc(OC)cc3)c(N)c2C#N)cc1
4. Nc1cc(C(F)(F)F)c(Br)cc1Br
5. NS(=O)(=O)Cc1ccc(CNc2ccc3ccc(F)cc3n2)cc1
6. Oc1cccc(CN2CCC3(CC2)C[C@H](c2ccccc2)CN(C2CC2)C3)c1
7. CC[C@@H](CO)NC(=O)Nc1ccc(Cl)cc1
8. COC(=O)[C@]1(C)CN(C(=O)NCc2cc(C#N)ccc2F)C[C@H]1C

A:
[-2, 7, -7, -16, 3, 31, 6, 7]

Here are 3 compounds. What values of % Inhibition were reported for them?
1. Cc1ccc(Cl)c(OCn2ccc(C(=O)Nc3ccc(Br)cn3)n2)c1
2. C1=CCC(c2nc(-c3cnccn3)no2)C1
3. C[C@H]1CCc2c(cnc3c(C(=O)NC4CC4)cnn23)C1

A:
[-16, -6, -8]

For each entry beneath this line, provide reported % Inhibition.
1. CN(Cc1ccc(-c2ccccc2)cc1)c1cc([C@H]2C[C@@H](N)C2)nc(N)n1
2. C[C@@H](NC(=O)Nc1ccc(Cl)c(Cl)c1)C(=O)O
3. Cc1cccc(NC(=O)[C@@H](C#N)C(=O)c2ncoc2C)c1
4. Cc1cnccc1NCCNCc1cccc(O)c1Cl

A:
1: 49; 2: 5; 3: -14; 4: 88

Give me % Inhibition for each of these compounds, listed below.
1. CC(C)(C)c1cc([C@H](c2ccc(Cl)cc2)N2CCCCC2)cc(C(C)(C)C)c1O
2. CC(C)CN1C(=O)CC[C@@H](C(=O)NCCCOC(C)C)[C@@H]1c1cccnc1
3. COc1ccc(NC(=O)CCC(=O)N2CCc3ccccc3C2)cc1
4. COc1ccccc1CNCCNC(=O)c1ccncc1
5. COc1cc(OC)c(S(=O)(=O)NC(C)C)cc1S(=O)(=O)NC(C)C

A:
1: 2; 2: -13; 3: 3; 4: 8; 5: -4

* * *

System: Plasmodium falciparum
Procedure Details: Confirmatory screen in NF54 nanoGlo assay, in single point, at 2uM, 72h
Assay type: functional, Erythrocyte
Study Conditions: timepoint 72 hour
Among all 4,800 compounds or so, about 420 (8.8%) showed an effect of 50% or more. The list comes from a sample in which strong results are over-represented; it also holds close analogues and randomly drawn compounds.
Assay Readout: % Inhibition (%)
Give bare numbers, in %.

Some solved cases for reference:
Compound | Target Entity | % Inhibition, %
CC1=N[C@H](N2CCN(c3ccccc3)CC2)NC(O)=C1 | Plasmodium falciparum | -12
COc1cccc(Cn2nccc2NC(=O)C2CCOCC2)c1OC | Plasmodium falciparum | -3
CC1CCC(C)(NC(=O)Nc2ccn(C(C)C)n2)CC1 (stereo not given) | Plasmodium falciparum | -11
c1cc(-c2nc3cc4ccccc4cc3[nH]2)nc(-c2nc3cc4ccccc4cc3[nH]2)c1 | Plasmodium falciparum | 99

Provide % Inhibition for all items below, preserving their order.
1. CN1CCN(CCc2nc(-c3ccc4cc[nH]c4c3)no2)CC1
2. COc1ccc(CNC(=O)c2ccc(Cl)c(-n3c(C)nc4cccnc43)c2)c(OC)c1
3. O=C(NCc1cccc(C(F)(F)F)c1)c1csc(C(=O)NC2CCCC2)n1
4. Oc1cc(-c2ccc3ccccc3c2)[nH]n1
5. CCc1ccc(NC(=O)[C@H](C)N2CCC(NS(=O)(=O)c3cccs3)CC2)cc1
6. Cc1nn(C)c2c(N3CCc4ccccc4C3)nc(C3CC3)nc12
7. CCN1C(=O)C(=O)N(CN2CCc3ccccc3C2)C1=O

A:
[-4, 2, -14, -11, 70, -7, -4]
